tested on: RXF 393; assay: NCI tumour cell line growth inhibition, 48 h
Active and inactive are the calls of the source. Cut-off read from the data, not from the text of the source: active = GI50 up to about 1.1 µM and inactive = higher.
Classes used: Yes = active, No = inactive

[[record]]
compound = "CC(=O)O[C@@H]1CC(C)C2CC2C2=C(C(O)OC2O)[C@@H]1C(C)CCC=C(C)C (some centres not stated)"
label = "No"

[[record]]
compound = "Nc1nc(Cl)c(N)c(NC23CC4CC(CC(C4)C2)C3)n1"
label = "No"

[[record]]
compound = "CCOC(=O)CCC(=O)C1c2cccc(O)c2C(=O)c2c(O)cccc21"
label = "Yes"

[[record]]
compound = "Cc1ccccc1NC(=O)C(=O)C(C#N)c1ccccc1C (configuration not stated)"
label = "No"

[[record]]
compound = "CN(C)CCCNC(=O)c1c(O)c2ccccc2n(C)c1=O"
label = "No"

[[record]]
compound = "O=C(NCCN(CCNC(=O)c1cccc(=O)n1O)CCNC(=O)c1cccc(=O)n1O)c1cccc(=O)n1O"
label = "No"

[[record]]
compound = "O=C1c2cccc([N+](=O)[O-])c2C(=O)N1Cc1ccccc1"
label = "No"

[[record]]
compound = "COc1c(/C=C/C=O)cc2c(c1OC)OCO2"
label = "No"

[[record]]
compound = "Cc1nnc(SCc2nc(C#N)c(C#N)nc2CSc2nnc(C)s2)s1"
label = "No"

[[record]]
compound = "Nc1ccn(CC(CO)CC(c2ccccc2)P(=O)(O)O)c(=O)n1 (configuration not stated)"
label = "No"

[[record]]
compound = "Clc1cc(Cl)ncn1"
label = "No"

[[record]]
compound = "Cc1ccc(-n2c(O)c(C#N)c3[nH]nc(N)c3c2=O)cc1"
label = "No"


Hey, just so you know, these numbers are from ChEMBL document CHEMBL1201862.
